Protocol Summary: Cytotoxicity assay (Cell Counting Kit-8)
Measurement Context: human, HEK293 cells, CC50 (50% cytotoxicity concentration), HEK293, 72 h, CCK8
Recorded Endpoint: CC50 at 3 days (µM)
I only need the number, in µM, no unit after it.

-- ask Record request: CC50 at 3 days value, item CC(C)[C@H](NC(=O)[C@@H](NC(=O)OC(C)(C)C)C1CCCCC1)C(=O)OCCOCCNc1cccc2c1C(=O)N(C1CCC(=O)NC1=O)C2=O (some centres unmarked) [Compound 15]
-- reply 145

---

Tested on: HEK293 cells
Protocol Summary: Cytotoxicity assay (Cell Counting Kit-8)
Measurement Context: read-out: CC50 (50% cytotoxicity concentration); HEK293, 72 h, CCK8
Recorded Endpoint: CC50 (µM)
I only need the number, in µM, no unit after it.

-- ask Record request: CC50 value, item CC(C)C[C@H](NC(=O)OC(C)(C)C)C(=O)N[C@@H](Cc1ccccc1)C(=O)OCCOCCOCCNc1cccc2c1C(=O)N(C1CCC(=O)NC1=O)C2=O (stereo partly shown)
-- reply 25.8
